# testedTarget: PHIP(2) (Homo sapiens, UniProt Q8WWQ0)
# Construct: second bromodomain
# assayMethodText: grating-coupled interferometry (waveRAPID), immobilised PHIP([…])
outcomeMeasure: Kd (µM)
Entry rule: numbers only, all in µM.

// Kd lookup, compound = CNC(=O)N1CCN(C(=O)c2ccc(COc3ccccc3)o2)CC1 [LAT33] , result: 18
